Give measured glycan array binding signal (z-score) for each item. Keep answers brief.
# study_target: Gal(b1-4)Glc
# assay_protocol: glycan array binding signal (z-score within array); higher = stronger binding
# condition_info: glycan notation: IUPAC condensed, linker removed
This excerpt belongs to a sample that is enriched for the strongest signals.
Please state the value as a number alone, without comment.

Per the record, Pwp6 (Candida glabrata) (protein) MGSSHHHHHHSSGLVPRGSHMASANLPKLTNICQIPDNVKKTSGFKGEIRRIGLFPPGGDYTYLLKFPSTGSTASDTISLTTKPQLSTSGWFPSLFGHTYFIKADLLVYMVAYFVPTETGEYTFKLVNSDDAAVMYVGNPSAFPCGSIDTWPEPRKEDINVCDKISASTKLYMEKGLAYPVRLVWYNGGGDGQFNAQFIDPSGTTHTDWNGYVWQYDACTDCDYK has glycan array binding signal (z-score) of -0.681

Per the record, AFL (Aspergillus fumigatus), Q4WW81 (protein) STPGAQQVLFRTGIAAVNLTNHLRVYFQDVYGSIRESLYEGSWANGTEKNVIGNAKLGSPVAATSKELKHIRVYTLTEGNTLQEFAYDSGTGWYNGGLGGAKFQVAPYSRIAAVFLAGTDALQLRIYAQKPDNTIQEYMWNGDGWKEGTNLGGALPGTGIGATSFRYTDYNGPSIRIWFQTDDLKLVQRAYDPHKGWYPDLVTIFDRAPPRTAIAATSFGAGNSSIYMRIYFVNSDNTIWQVCWDHGKGYHDKGTITPVIQGSEVAIISWGSFANNGPDLRLYFQNGTYISAVSEWVWNRAHGSQLGRSALPPA has glycan array binding signal (z-score) of -0.383

Per the record, SJCP3842 (Schistosoma japonicum) (protein) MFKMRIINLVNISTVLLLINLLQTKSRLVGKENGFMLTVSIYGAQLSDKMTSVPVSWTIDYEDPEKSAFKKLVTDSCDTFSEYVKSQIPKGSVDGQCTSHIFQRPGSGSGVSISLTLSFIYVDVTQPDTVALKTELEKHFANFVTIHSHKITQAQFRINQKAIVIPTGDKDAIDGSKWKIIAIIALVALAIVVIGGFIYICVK has glycan array binding signal (z-score) of -1.59

Per the record, F17-L (Escherichia coli) (protein) GPDDYVPSQIAVNTSTLPGVVIGPADAHTYPRVIGELAGTSNQYVFNGGAIALMRGKFTPALPKIGSITYTFHQGNSRDSSDFDIYDIGVSGLGIIIGMAGYWPATPLVPINSSGIYIDPVGANTNPNTYNGATASFGARLFVAFVATGRLPNGYITIPTRQLGTILLEAKRTSLNNKGLTAPVMLNGGRIQVQSQTHHHHHH has glycan array binding signal (z-score) of -0.096

Per the record, Epa7 (Candida glabrata), Q6DTM6_CANGB (protein) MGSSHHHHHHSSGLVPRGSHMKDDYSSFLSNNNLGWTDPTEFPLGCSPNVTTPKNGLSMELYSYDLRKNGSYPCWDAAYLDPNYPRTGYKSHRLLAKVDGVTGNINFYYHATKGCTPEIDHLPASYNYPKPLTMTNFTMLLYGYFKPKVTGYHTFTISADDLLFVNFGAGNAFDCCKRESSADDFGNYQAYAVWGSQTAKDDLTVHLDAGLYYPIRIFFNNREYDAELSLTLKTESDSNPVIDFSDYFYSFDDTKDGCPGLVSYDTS has glycan array binding signal (z-score) of -0.199

Per the record, Clone646PsrP (Streptococcus pneumoniae) (protein) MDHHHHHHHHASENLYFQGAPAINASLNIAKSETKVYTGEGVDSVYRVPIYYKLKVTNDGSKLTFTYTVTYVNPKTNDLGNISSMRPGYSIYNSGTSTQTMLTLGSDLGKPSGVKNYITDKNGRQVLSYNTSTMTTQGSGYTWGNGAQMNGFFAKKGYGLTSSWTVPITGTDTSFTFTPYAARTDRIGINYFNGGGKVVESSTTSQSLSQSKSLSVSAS has glycan array binding signal (z-score) of 0.581
